Test: Serum concentration of amphotericin B in rabbits after rectal administration of suppositories (HPLC)
Conditions: rabbit, in vivo, 10 mg/kg
assay-readout: concentration at 24 h (ng/mL)
Just the number please, in ng/mL, no unit attached.

Ask | So what does the record say about concentration at 24 h for C[C@@H]1[C@H](O)[C@@H](C)/C=C/C=C/C=C/C=C/C=C/C=C/C=C/[C@H](O[C@@H]2O[C@H](C)[C@@H](O)[C@H](N)[C@@H]2O)C[C@@H]2O[C@](O)(C[C@@H](O)C[C@@H](O)[C@H](O)CC[C@@H](O)C[C@@H](O)CC(=O)O[C@H]1C)C[C@H](O)[C@H]2C(=O)O [Amph., amphotericin B] ?
Reply | 1.3

----------
Test: Serum concentration of amphotericin B in rabbits after rectal administration of suppositories (HPLC)
Settings: rabbit, in vivo, 10 mg/kg
assay-readout: concentration at 11 h (ng/mL)
I only need the number, in ng/mL, no unit after it.

Ask | What value of concentration at 11 h has been reported for the following compound? `C[C@@H]1[C@H](O)[C@@H](C)/C=C/C=C/C=C/C=C/C=C/C=C/C=C/[C@H](O[C@@H]2O[C@H](C)[C@@H](O)[C@H](N)[C@@H]2O)C[C@@H]2O[C@](O)(C[C@@H](O)C[C@@H](O)[C@H](O)CC[C@@H](O)C[C@@H](O)CC(=O)O[C@H]1C)C[C@H](O)[C@H]2C(=O)O`
Reply | 2.7

----------
Test: Serum concentration of amphotericin B in rabbits after rectal administration of suppositories (HPLC)
Conditions: rabbit, in vivo, 10 mg/kg
assay-readout: concentration at 9 h (ng/mL)
Numeric only. Scale: ng/mL

Ask | Fill in: concentration at 9 h of C[C@@H]1[C@H](O)[C@@H](C)/C=C/C=C/C=C/C=C/C=C/C=C/C=C/[C@H](O[C@@H]2O[C@H](C)[C@@H](O)[C@H](N)[C@@H]2O)C[C@@H]2O[C@](O)(C[C@@H](O)C[C@@H](O)[C@H](O)CC[C@@H](O)C[C@@H](O)CC(=O)O[C@H]1C)C[C@H](O)[C@H]2C(=O)O [Amph., amphotericin B] is ___
Reply | 3.3
